Origin of the recorded values: the Immune Epitope Database (IEDB)

# experimental.system: HLA-A*02:19
# assay.notes: IEDB peptide-MHC binding, purified MHC/competitive/fluorescence; filed as Kd, often an IC50 or EC50 that approximates it; bounds were set here for any values at or beyond the usual limits of such assays
# experimental.parameters: source organism: Human immunodeficiency virus 1
Can you tell me pKd for the items I'm about to list?
Give bare numbers, as −log10 of the molar value.

{"sequence.code": "GLADQLIHM", "reported": 6.81}

Kindly review the next sequence as well.
Problem: Data request, read-out pKd, for "LTFGWCFKL"
Result: 6.12

---

# experimental.system: HLA-B*44:02
# assay.notes: IEDB peptide-MHC binding, purified MHC/direct/fluorescence; filed as Kd, often an IC50 or EC50 that approximates it; bounds were set here for any values at or beyond the usual limits of such assays
# experimental.parameters: source organism: Giardia lamblia ATCC 50803
pKd: −log10 of the molar value.
observation.type: pKd

{"sequence.code": "SVFHEHIFK", "pKd": "≤ 4.70"}
{"sequence.code": "YIASIFMPR", "pKd": "≤ 4.70"}
{"sequence.code": "ASSWAPTQK", "pKd": "≤ 4.70"}

Kindly review the next sequence as well.
Problem: Data request, read-out pKd, for "IVKYKQYLK"
Result: ≤ 4.70

---

Can you tell me pIC50 for the items I'm about to list?
# experimental.system: HLA-A*24:02
# assay.notes: IEDB peptide-MHC binding, purified MHC/competitive/fluorescence; bounds were set here for any values at or beyond the usual limits of such assays
# experimental.parameters: source organism: Variola virus
Give bare numbers, as −log10 of the molar value.

{"sequence.code": "VPKLLLWFN", "reported": 5.01}

Kindly review the next sequence as well.
Problem: Data request, read-out pIC50, for "TDFHERPVI"
Result: 6.39

---

# experimental.system: HLA-B*48:01
# assay.notes: IEDB peptide-MHC binding, purified MHC/direct/fluorescence; filed as Kd, often an IC50 or EC50 that approximates it; bounds were set here for any values at or beyond the usual limits of such assays
# experimental.parameters: source organism: Bacillus anthracis
observation.type: Kd

Problem: Data request, read-out Kd, for "KVQEWYLSY"
Result: ≥ 20 µM

---

# experimental.system: HLA-B*15:09
# assay.notes: IEDB peptide-MHC binding, purified MHC/direct/fluorescence; filed as Kd, often an IC50 or EC50 that approximates it; bounds were set here for any values at or beyond the usual limits of such assays
# experimental.parameters: source organism: Influenza A virus(A/swine/Shandong/fZC/2003(H9N2))
pKd: −log10 of the molar value.
observation.type: pKd

Problem: Data request, read-out pKd, for "IAGFIEGGW"
Result: ≤ 4.70

---

# experimental.system: HLA-A*29:02
# assay.notes: IEDB peptide-MHC binding, purified MHC/competitive/fluorescence; filed as Kd, often an IC50 or EC50 that approximates it; bounds were set here for any values at or beyond the usual limits of such assays
# experimental.parameters: source organism: Burkholderia mallei NCTC 10229
observation.type: Kd (nM)
Give bare numbers, in nM.

Problem: Data request, read-out Kd, for "RTFGQPLFF"
Result: 0.2

---

# experimental.system: HLA-B*08:03
# assay.notes: IEDB peptide-MHC binding, purified MHC/competitive/fluorescence; filed as Kd, often an IC50 or EC50 that approximates it; bounds were set here for any values at or beyond the usual limits of such assays
# experimental.parameters: source organism: Escherichia coli str. K-12 substr. DH10B
pKd: −log10 of the molar value.
observation.type: pKd

Problem: Data request, read-out pKd, for "QVIFKCVPK"
Result: ≤ 4.70

---

# experimental.system: HLA-A*02:01
# assay.notes: IEDB peptide-MHC binding, purified MHC/direct/fluorescence; filed as Kd, often an IC50 or EC50 that approximates it; bounds were set here for any values at or beyond the usual limits of such assays
# experimental.parameters: source organism: Homo sapiens
pKd: −log10 of the molar value.
observation.type: pKd

Problem: Param readout= pKd; system= HLA-A*02:01; entry= "APTGDLPRA" ; returns value.
Result: ≤ 4.66

---

# experimental.system: HLA-A*69:01
# assay.notes: IEDB peptide-MHC binding, purified MHC/direct/fluorescence; filed as Kd, often an IC50 or EC50 that approximates it; bounds were set here for any values at or beyond the usual limits of such assays
# experimental.parameters: source organism: Aggregatibacter actinomycetemcomitans
pKd: −log10 of the molar value.
observation.type: pKd

Problem: Param readout= pKd; system= HLA-A*69:01; entry= "KYDDRIQSQ" ; returns value.
Result: ≤ 4.70

---

# experimental.system: HLA-A*33:01
# assay.notes: IEDB peptide-MHC binding, purified MHC/competitive/radioactivity; filed as Kd, often an IC50 or EC50 that approximates it; bounds were set here for any values at or beyond the usual limits of such assays
# experimental.parameters: source organism: Hepacivirus hominis
observation.type: Kd

Problem: Data request, read-out Kd, for "RPALVFDITK"
Result: ≥ 70 µM

---

# experimental.system: HLA-A*31:01
# assay.notes: IEDB peptide-MHC binding, purified MHC/competitive/fluorescence; filed as Kd, often an IC50 or EC50 that approximates it; bounds were set here for any values at or beyond the usual limits of such assays
# experimental.parameters: source organism: West Nile virus
observation.type: pKd
Give bare numbers, as −log10 of the molar value.

Problem: Data request, read-out pKd, for "VLRKRWTAK"
Result: 7.23

---

# experimental.system: HLA-B*27:05
# assay.notes: IEDB peptide-MHC binding, purified MHC/direct/fluorescence; filed as Kd, often an IC50 or EC50 that approximates it; bounds were set here for any values at or beyond the usual limits of such assays
# experimental.parameters: source organism: Mammarenavirus lassaense
observation.type: Kd

Problem: Param readout= Kd; system= HLA-B*27:05; entry= "NQFGTMPSL" ; returns value.
Result: ≥ 20 µM

---

# experimental.system: HLA-B*07:02
# assay.notes: IEDB peptide-MHC binding, purified MHC/direct/fluorescence; filed as Kd, often an IC50 or EC50 that approximates it; bounds were set here for any values at or beyond the usual limits of such assays
# experimental.parameters: source organism: Bacillus anthracis
observation.type: Kd

// known answers, use as guide
{"sequence.code": "RTIQGQRFW", "Kd": "≥ 20 µM"}
{"sequence.code": "KVQEWYLSY", "Kd": "5.54 µM"}

Kindly review the next sequence as well.
Problem: Data request, read-out Kd, for "FIFGKMGAG"
Result: ≥ 20 µM

---

# experimental.system: HLA-B*07:02
# assay.notes: IEDB peptide-MHC binding, purified MHC/direct/fluorescence; filed as Kd, often an IC50 or EC50 that approximates it; bounds were set here for any values at or beyond the usual limits of such assays
# experimental.parameters: source organism: Influenza A virus (A/camel/Mongolia/1982(H1N1))
Can you tell me Kd for the items I'm about to list?

{"sequence.code": "EKFFPSSSY", "Kd": "≥ 20 µM"}

Kindly review the next sequence as well.
Problem: Data request, read-out Kd, for "KFFPSSSYR"
Result: ≥ 20 µM

---

# experimental.system: HLA-B*18:01
# assay.notes: IEDB peptide-MHC binding, purified MHC/direct/fluorescence; filed as Kd, often an IC50 or EC50 that approximates it; bounds were set here for any values at or beyond the usual limits of such assays
# experimental.parameters: source organism: Marburg virus - Musoke, Kenya, 1980
pKd: −log10 of the molar value.
observation.type: pKd

Problem: Param readout= pKd; system= HLA-B*18:01; entry= "GEGSGARLL" ; returns value.
Result: ≤ 4.70

---

# experimental.system: HLA-B*15:01
# assay.notes: IEDB peptide-MHC binding, purified MHC/competitive/fluorescence; filed as Kd, often an IC50 or EC50 that approximates it; bounds were set here for any values at or beyond the usual limits of such assays
# experimental.parameters: source organism: Escherichia coli O157:H7 str. EDL933
observation.type: Kd (µM)
Give bare numbers, in µM.

Problem: Param readout= Kd; system= HLA-B*15:01; entry= "FERGVINVF" ; returns value.
Result: 0.265

---

# experimental.system: HLA-A*31:01
# assay.notes: IEDB peptide-MHC binding, purified MHC/competitive/radioactivity; filed as Kd, often an IC50 or EC50 that approximates it; bounds were set here for any values at or beyond the usual limits of such assays
# experimental.parameters: source organism: Dengue virus 4 Philippines/H241/1956
observation.type: Kd
Answer shape: numeric part, then the unit.

{"sequence.code": "ATTILTPMLR", "Kd": "77.3 nM"}

Kindly review the next sequence as well.
Problem: Param readout= Kd; system= HLA-A*31:01; entry= "LIKNAQTPR" ; returns value.
Result: 13.6 nM

---

# experimental.system: HLA-B*46:01
# assay.notes: IEDB peptide-MHC binding, purified MHC/direct/fluorescence; filed as Kd, often an IC50 or EC50 that approximates it; bounds were set here for any values at or beyond the usual limits of such assays
# experimental.parameters: source organism: Coxiella burnetii Q321
pKd: −log10 of the molar value.
observation.type: pKd

Problem: Param readout= pKd; system= HLA-B*46:01; entry= "DGAEGINPY" ; returns value.
Result: ≤ 4.70
